Origin of measurements: paper PMC6704344

- Assay method text: Plasma pharmacokinetics after sciatic nerve block in rats
- Format: in vivo, rat
- Assay conditions: both sexes, rat; plasma; given as LL-1, sciatic nerve block; n = 10; mean ± SEM; read-out: Tmax
Measured parameter: Tmax (h)
Give bare numbers, in h.

Answer with the recorded Tmax for the molecule listed here: CCCCN1CCCC[C@H]1C(=O)Nc1c(C)cccc1C
4.11

###

- Assay method text: Plasma pharmacokinetics after sciatic nerve block in rats
- Type: in vivo, rat
- Assay conditions: both sexes, rat; plasma; given as LL-1, sciatic nerve block; n = 10; mean ± SEM
Measured parameter: AUC(0-inf) (ng·h/mL)
Answers are plain numbers, in ng·h/mL.

Specify measured AUC(0-inf) for CCCCN1CCCC[C@H]1C(=O)Nc1c(C)cccc1C .
819

###

- Assay method text: Plasma pharmacokinetics after sciatic nerve block in rats
- Type: in vivo, rat
- Assay conditions: both sexes, rat, 200 μl; plasma; Levobupivacaine alone (single drug), sciatic nerve block; mean ± SEM
- Experimental: In brief, rats were anesthetized by inhaling 1%–2% isoflurane mixed with oxygen through an inhouse-made mask. Then, the rats were placed at right lateral position and inserted vertically using a 23-gauge injector at the middle of the line from the greater trochanter to ischial tuberosity ([Binshtok et al., 2007]; [Zhang et al., 2017b]). […] The parameters of pharmacokinetics were analyzed by DAS® (Drug and Statistics, version 3.2.1, China) using noncompartmental model. […]
Measured parameter: Cmax (µg/mL)
Numbers only, in µg/mL.

Give the value of Cmax reported for the following: CCCCN1CCCC[C@H]1C(=O)Nc1c(C)cccc1C
0.142
